target desc: T1, Drp53 (Danio rerio, UniProt P79734 1-373)
T1 sequence: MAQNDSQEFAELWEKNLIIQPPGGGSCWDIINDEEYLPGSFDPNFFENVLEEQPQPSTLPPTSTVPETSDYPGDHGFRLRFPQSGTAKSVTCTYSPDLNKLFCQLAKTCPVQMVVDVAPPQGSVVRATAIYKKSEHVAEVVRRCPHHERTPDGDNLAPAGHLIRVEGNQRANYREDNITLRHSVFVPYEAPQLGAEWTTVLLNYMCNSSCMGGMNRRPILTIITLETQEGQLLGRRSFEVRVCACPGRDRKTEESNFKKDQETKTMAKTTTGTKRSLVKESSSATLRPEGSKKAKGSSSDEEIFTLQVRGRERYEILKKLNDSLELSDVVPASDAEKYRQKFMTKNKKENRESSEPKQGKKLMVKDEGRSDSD
assay summary: fluorescence anisotropy competition titration; 25 mM sodium phosphate (purification buffer pH 7.2), 225 mM NaCl, 10% v/v glycerol, 5 mM DTT, 0.2 mg/mL BSA, 22 C
condition label: protein: recombinant; tags: N-terminal 6xHis-lipoyl-TEV tag, cleaved; chain copies: 4
reported property: pKd
Answer as the number alone; pKd is minus log10 of concentration in mol/L.

query: What does the data say about its pKd? Entry: Ref competitor (dsDNA) DNA 1: CGCGGACATGTCCGGACATGTCCCGC DNA 2: GCGGGACATGTCCGGACATGTCCGCG
result: 7.42

Hello, the source for this data is paper PMC2807882, in case you need it.
